Target: BTK enzyme (recombinant full-length BTK, hBTK) (Homo sapiens, UniProt Q06187)
Construct: recombinant protein from baculovirus-transfected Sf9 cells: full-length BTK, 6HIS-tag cleaved; 6HIS (cleaved yes); made in house; host or cells: baculovirus-transfected Sf9 cells
Sequence (Q06187 whole entry): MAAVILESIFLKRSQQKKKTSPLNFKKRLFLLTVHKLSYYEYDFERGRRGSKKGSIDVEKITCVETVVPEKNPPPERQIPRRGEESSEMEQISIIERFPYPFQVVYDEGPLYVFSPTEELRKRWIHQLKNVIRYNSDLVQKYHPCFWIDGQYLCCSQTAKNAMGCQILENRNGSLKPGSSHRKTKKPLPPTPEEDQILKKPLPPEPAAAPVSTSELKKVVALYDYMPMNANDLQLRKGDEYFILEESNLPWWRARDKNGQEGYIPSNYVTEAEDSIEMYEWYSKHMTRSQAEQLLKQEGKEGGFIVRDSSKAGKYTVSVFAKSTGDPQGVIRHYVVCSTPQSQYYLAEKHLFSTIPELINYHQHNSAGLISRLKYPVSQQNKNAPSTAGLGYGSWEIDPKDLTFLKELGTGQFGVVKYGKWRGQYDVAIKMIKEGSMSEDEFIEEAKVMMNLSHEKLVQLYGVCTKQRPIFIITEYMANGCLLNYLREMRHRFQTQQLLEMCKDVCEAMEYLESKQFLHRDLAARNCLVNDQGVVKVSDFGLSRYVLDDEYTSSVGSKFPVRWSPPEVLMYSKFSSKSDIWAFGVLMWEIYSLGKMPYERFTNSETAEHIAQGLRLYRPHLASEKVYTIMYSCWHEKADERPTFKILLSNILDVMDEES
Test: BTK enzyme activity assay, LANCE TR-FRET
Type: biochemical
Conditions: 50 pM hBTK, 2 μM biotin-A5-peptide, 25 μM ATP; 60 min compound & enzyme incubation; read-out: IC50 BTK activity value
Measurement label: IC50 (nM)

Some molecules with recorded IC50:
Nc1ncc(Cl)n2c([C@@H]3CC[C@H]4CCC(=O)N4C3)nc(-c3ccc(C(=O)Nc4cc(C(F)(F)F)ccn4)cc3Cl)c12 [Example 194]: 0.39
COc1cc(C(=O)Nc2ccc(C)cn2)ccc1-c1nc([C@@H]2CC[C@H]3CCC(=O)N3C2)n2c(Cl)cnc(N)c12 [Example 210]: 1.4
CCOc1cc(C(=O)Nc2cc(C(F)(F)F)ccn2)ccc1-c1nc([C@@H]2CC[C@H]3CCC(=O)N3C2)n2c(C(F)(F)F)cnc(N)c12 [Example 206]: 0.72
Nc1ncc(F)n2c([C@@H]3CC[C@H]4CCC(=O)N4C3)nc(-c3ccc(C(=O)Nc4cc(C(F)(F)F)ccn4)cc3)c12 [Example 160]: 0.28
Nc1nccn2c([C@@H]3CC[C@H]4CCC(=O)N4C3)nc(-c3cc(F)c(C(=O)Nc4cc(C(F)(F)F)ccn4)cc3Cl)c12 [Example 193]: 4.6

(I) N#Cc1cnc(NC(=O)c2ccc(-c3nc([C@@H]4CC[C@H]5CCC(=O)N5C4)n4ccnc(N)c34)cc2)cc1C(F)(F)F [Example 117]
(II) C[C@H]1CC(=O)N2C[C@H](c3nc(-c4ccc(C(=O)Nc5cc(C(F)(F)F)ccn5)cc4)c4c(N)nccn34)CC[C@H]12 [Example 64]
Of I and II , whose reported IC50 is the larger number? Output the label that corresponds to your choice.
I
(I: 2.1 nM, II: 0.77 nM)

---

Tested on: HeLa cells
Experiment: [3H]Adenosine uptake functional cellular assay
Type: cell-based
Conditions: Homo sapiens, HeLa, accumulation of [3H]adenosine into HeLa cells; compound range 10 μM to […]; read-out: Adenosine uptake inhibition IC50
Measurement label: IC50 (nM)

Nc1nccn2c([C@H]3CC[C@@H]4CNCC(=O)N4C3)nc(-c3ccc(C(=O)Nc4cc(C(F)(F)F)ccn4)cc3)c12 [Example 41]: 793
COc1cc(C(=O)Nc2cc(C(F)(F)F)ccn2)ccc1-c1nc([C@@H]2CC[C@H]3CCC(=O)N3C2)n2ccnc(N)c12 [Example 88]: 699
CCOc1cc(C(=O)Nc2cc(C(F)(F)F)n(C)n2)ccc1-c1nc([C@@H]2CC[C@H]3CCC(=O)N3C2)n2c(C(F)(F)F)cnc(N)c12 [Example 215]: 2470

(A) Cn1nc(NC(=O)c2ccc(-c3nc([C@@H]4CC[C@H]5CCC(=O)N5C4)n4ccnc(N)c34)c(Cl)c2)cc1C(F)(F)F [Example 190]
(B) Nc1nccn2c([C@@H]3CC[C@H]4COCC(=O)N4C3)nc(-c3ccc(C(=O)Nc4cc(C(F)(F)F)ccn4)cc3F)c12 [Example 39]
Smaller IC50 value, A vs B ? Response format: the label of the selected entry.
B
(B: 57.4 nM, A: 310 nM)
